Species on record: Rattus norvegicus
assay.summary: Open TG-GATES - Regimen: Daily Repeat
Format: toxicity, organism-based, Sprague-Dawley
Design: regimen Daily Repeat, gender Male, age 6 weeks
condition.parameters: in vivo, po, 0 mg/kg, […], tissue Plasma, route gavage, dose level Control, time 14 day
measured.endpoint: Ca (mg/dL)
Write the answer as a number in mg/dL, unit excluded.

Below, each entry is followed by its recorded Ca result.
CN(C)CCC(c1ccc(Cl)cc1)c1ccccn1 (stereo not drawn) :: 10.9
CNC(=C[N+](=O)[O-])NCCSCc1ccc(CN(C)C)o1 :: 10.6

// query Recorded Ca of "Cc1nnc2n1-c1ccc(Cl)cc1C(c1ccccc1Cl)=NC2" , please.
// result 10.9

====

Species on record: Rattus norvegicus
assay.summary: Open TG-GATES - Regimen: Single
Assay type: toxicity, organism-based, Sprague-Dawley
Set-up: regimen Single, gender Male, age 6 weeks
condition.parameters: in vivo, po, 0 mg/kg, 3 h, tissue Blood, route gavage, dose level Control
Below, each entry is listed with its recorded WBC.

Below, each entry is followed by its recorded WBC result.
CN(C)CCC(c1ccc(Cl)cc1)c1ccccn1 (stereo not given) [CHLORPHENIRAMINE] :: 120.9 x10_2/uL
CNC(=C[N+](=O)[O-])NCCSCc1ccc(CN(C)C)o1 [RANITIDINE] :: 87.5 x10_2/uL
COC(=O)C1=C(C)NC(C)=C(C(=O)OC)C1c1ccccc1[N+](=O)[O-] [NIFEDIPINE] :: 85.8 x10_2/uL
CN/C(=N/CCSCc1nc[nH]c1C)NC#N [CIMETIDINE] :: 95.7 x10_2/uL

Would you kindly look at the next entry?
// query Recorded WBC of CC(C)NNC(=O)c1ccncc1 [IPRONIAZID] , please.
// result 72.6 x10_2/uL

====

Species on record: Rattus norvegicus
assay.summary: Open TG-GATES - Regimen: Single
Format: toxicity, organism-based, Sprague-Dawley
Set-up: regimen Single, gender Male, age 6 weeks
condition.parameters: in vivo, po, 300 mg/kg, 9 h, tissue Blood, route gavage, dose level Middle
Below, each entry is listed with its recorded APTT.
Write the answer as a number in s, unit excluded.

Cc1nnc2n1-c1ccc(Cl)cc1C(c1ccccc1Cl)=NC2 [TRIAZOLAM] :: 16.7

// query Recorded APTT of CNC(=C[N+](=O)[O-])NCCSCc1ccc(CN(C)C)o1 [RANITIDINE] , please.
// result 19.5

// query Recorded APTT of CN/C(=N/CCSCc1nc[nH]c1C)NC#N [CIMETIDINE] , please.
// result 20.6

// query Recorded APTT of COC(=O)C1=C(C)NC(C)=C(C(=O)OC)C1c1ccccc1[N+](=O)[O-] [NIFEDIPINE] , please.
// result 17.3

// query Recorded APTT of O=C(OC[C@H]1O[C@@H](OC(=O)c2cc(O)c(O)c(OC(=O)c3cc(O)c(O)c(O)c3)c2)[C@H](OC(=O)c2cc(O)c(O)c(OC(=O)c3cc(O)c(O)c(O)c3)c2)[C@@H](OC(=O)c2cc(O)c(O)c(OC(=O)c3cc(O)c(O)c(O)c3)c2)[C@@H]1OC(=O)c1cc(O)c(O)c(OC(=O)c2cc(O)c(O)c(O)c2)c1)c1cc(O)c(O)c(OC(=O)c2cc(O)c(O)c(O)c2)c1 [TANNIC ACID] , please.
// result 16.4

Entry source: ChEMBL document CHEMBL3885861
